The reported measurements were obtained from the supplement of paper PMC10307832.

test system: EPLC-272H; test: relative viability (nuclei count vs DMSO), 5 days (fraction); higher = more cells survive; conditions: first compound 0.002 µM
Recorded relative viability for the following compounds
Would you mind answering with just the numeric figure?

{"compound": "CC(=O)O[C@@]12CO[C@@H]1C[C@H](O)[C@@]1(C)C(=O)[C@H](O)C3=C(C)[C@@H](OC(=O)[C@H](O)[C@@H](NC(=O)OC(C)(C)C)c4ccccc4)C[C@@](O)([C@@H](OC(=O)c4ccccc4)[C@H]21)C3(C)C [Docetaxel] + CC1(C)CCC(c2ccc(Cl)cc2)=C(CN2CCN(c3ccc(C(=O)NS(=O)(=O)c4ccc(N[C@H](CCN5CCOCC5)CSc5ccccc5)c(S(=O)(=O)C(F)(F)F)c4)cc3)CC2)C1 [Navitoclax] (partner 0.5 µM)", "recorded measurement": 0.374}
{"compound": "CC(=O)O[C@@]12CO[C@@H]1C[C@H](O)[C@@]1(C)C(=O)[C@H](O)C3=C(C)[C@@H](OC(=O)[C@H](O)[C@@H](NC(=O)OC(C)(C)C)c4ccccc4)C[C@@](O)([C@@H](OC(=O)c4ccccc4)[C@H]21)C3(C)C [Docetaxel] + COc1cccc2cc(-c3nc([C@H]4CC[C@H](C(=O)O)CC4)n4ncnc(N)c34)[nH]c12 [OSI-027] (partner 0.5 µM)", "recorded measurement": 0.228}

Query relative viability for CC(=O)O[C@@]12CO[C@@H]1C[C@H](O)[C@@]1(C)C(=O)[C@H](O)C3=C(C)[C@@H](OC(=O)[C@H](O)[C@@H](NC(=O)OC(C)(C)C)c4ccccc4)C[C@@](O)([C@@H](OC(=O)c4ccccc4)[C@H]21)C3(C)C [Docetaxel] + C[C@@H](Oc1cc(-c2cnn(C3CCNCC3)c2)cnc1N)c1c(Cl)ccc(F)c1Cl [Crizotinib] (partner 1 µM) 0.321

----------
system: A-427; assay: relative viability (nuclei count vs DMSO), 5 days (fraction); higher = more cells survive; conditions: first compound 0.006325 µM
Recorded relative viability for the following molecules

{"molecule": "CC(=O)O[C@@]12CO[C@@H]1C[C@H](O)[C@@]1(C)C(=O)[C@H](O)C3=C(C)[C@@H](OC(=O)[C@H](O)[C@@H](NC(=O)OC(C)(C)C)c4ccccc4)C[C@@](O)([C@@H](OC(=O)c4ccccc4)[C@H]21)C3(C)C [Docetaxel] + CC(=O)c1c(C)c2cnc(Nc3ccc(N4CCNCC4)cn3)nc2n(C2CCCC2)c1=O [Palbociclib] (partner 0.5 µM)", "recorded measurement": 0.372}

Query relative viability for CC(=O)O[C@@]12CO[C@@H]1C[C@H](O)[C@@]1(C)C(=O)[C@H](O)C3=C(C)[C@@H](OC(=O)[C@H](O)[C@@H](NC(=O)OC(C)(C)C)c4ccccc4)C[C@@](O)([C@@H](OC(=O)c4ccccc4)[C@H]21)C3(C)C [Docetaxel] + Nc1ncn([C@H]2C[C@H](O)[C@@H](CO)O2)c(=O)n1 [Decitabine] (partner 2 µM) 0.3

----------
system: LCLC-103H; experiment: relative viability (nuclei count vs DMSO), 5 days (fraction); higher = more cells survive; settings: first compound 0.04 µM
So basically, if relative viability comes in under 0.8 it's Condition met, and if it's 0.8 or more it's Condition not met.

{"compound": "Cc1sc2c(c1C)C(c1ccc(Cl)cc1)=N[C@@H](CC(=O)OC(C)(C)C)c1nnc(C)n1-2 [JQ1] + Nc1nc2[nH]cc(CCc3ccc(C(=O)N[C@@H](CCC(=O)O)C(=O)O)cc3)c2c(=O)[nH]1 [Pemetrexed] (partner 0.2 µM)", "class label": "Condition met"}
{"compound": "Cc1sc2c(c1C)C(c1ccc(Cl)cc1)=N[C@@H](CC(=O)OC(C)(C)C)c1nnc(C)n1-2 [JQ1] + CC(C)C[C@H](NC(=O)[C@H](Cc1ccccc1)NC(=O)c1cnccn1)B(O)O [Bortezomib] (partner 0.002 µM)", "class label": "Condition not met"}
{"compound": "Cc1sc2c(c1C)C(c1ccc(Cl)cc1)=N[C@@H](CC(=O)OC(C)(C)C)c1nnc(C)n1-2 [JQ1] + CC(=O)c1c(C)c2cnc(Nc3ccc(N4CCNCC4)cn3)nc2n(C2CCCC2)c1=O [Palbociclib] (partner 0.5 µM)", "class label": "Condition met"}

Confirm or reject: relative viability of Cc1sc2c(c1C)C(c1ccc(Cl)cc1)=N[C@@H](CC(=O)OC(C)(C)C)c1nnc(C)n1-2 [JQ1] + C[C@]1(O)C[C@@H](c2nc(-c3ccc4ccc(-c5ccccc5)nc4c3)c3c(N)nccn32)C1 [Linsitinib] (partner 1 µM) lies strictly below 0.8 Condition not met
